# Test system: normal human keratinocytes (NHEKa)
# Type: cell-based
# Experimental setup: all four concentrations (1, 2.5, 5 and 10 μM), 24 hours
Property name: viability of NHEKa cells (proportion of viable cells referenced to DMSO)

Molecule | Tgt | Assay result
CC(=O)CC(=O)OC1CCC2(C)C(CCC3(C)C2C(=O)C=C2C4CC(C)(C(=O)O)CCC4(C)CCC23C)C1(C)C (stereo not shown) [YP016] | normal human keratinocytes (NHEKa) | no decrease in viability
COC(=O)[C@@]1(C)CC[C@]2(C)CCC3(C)C(=CC(=O)C4[C@@]5(C)CC[C@H](OC(=O)c6ccccc6C(=O)O)C(C)(C)C5CC[C@]43C)[C@@H]2C1 (stereo in doubt) [YP015] | normal human keratinocytes (NHEKa) | no decrease in viability
